- assay comment: APR_HepG2_P-H2AX_24hr: Apredica 24-hour HepG2 Assay for H2AX Phosphorylation (AID 2282920)
- measurement conditions: high-content imaging, actives raise or lower the signal
Active and inactive are the calls of the source. Rule for the calls: active = hit-call score of the fitted dose curve at least 0.9, where 1 is the maximum; inactive = score below 0.9.
Classes used: active, inactive

>>> df
                                   structure     class
 0              CCCCOC(=O)CCCCCCCCC(=O)OCCCC  inactive
 1                          Cc1ccc(C)c(O)c1C  inactive
 2  Cc1c(C(=O)O)c(O)cc2c1C(=O)c1c(O)c([C@@H]3O[C@H](CO)[C@@H](O)[C@H](O)[C@H]3O)c(O)c(O)c1C2=O  inactive
 3  Nc1nc(N)c2nc(CNc3ccc(C(=O)N[C@@H](CCC(=O)O)C(=O)O)cc3)cnc2n1  inactive
 4    OC[C@@H](O)[C@@H](O)[C@H](O)[C@H](O)CO  inactive
 5                       C=CCc1ccc(O)c(OC)c1  inactive
 6  O=c1c(O)c(-c2ccc(O)c(O)c2)oc2cc(O)cc(O)c12    active
 7                               CCCCCCCCCCC  inactive
 8                                 COCCOCCOC  inactive
 9                      C1CCC(SSC2CCCCC2)CC1    active
10  CN[C@H]1CC[C@@H](c2ccc(Cl)c(Cl)c2)c2ccc(S(N)(=O)=O)cc21    active
